# ASSAYED_TARGET: LecA (Pseudomonas aeruginosa, UniProt Q05097)
# Construct: made in house
# Sequence (Q05097 whole entry): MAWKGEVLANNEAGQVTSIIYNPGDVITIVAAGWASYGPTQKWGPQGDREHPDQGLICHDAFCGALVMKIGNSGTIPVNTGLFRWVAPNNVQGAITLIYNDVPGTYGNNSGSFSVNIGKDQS
# ASSAY_REMARKS: competitive binding assay based on fluorescence polarisation (FP)
# MEASUREMENT_CONDITIONS: IC50, Table 3; TBS/Ca2+ buffer in presence of 25% DMSO
PARAMETER_MEASURED: IC50 (µM)

COMPOUND | TEST_RESULT
N.N.O=C(CCc1ccc(O[C@@H]2OC(CO)[C@H](O)C(O)C2O)cc1)Nc1ccc(CCc2ccc(NC(=O)CCc3ccc(O[C@@H]4OC(CO)[C@H](O)C(O)C4O)cc3)cc2S(=O)(=O)O)c(S(=O)(=O)O)c1 (some centres unmarked) [Compound 35] | 4
O=C(CCc1ccc(O[C@@H]2O[C@H](CO)[C@H](O)[C@H](O)[C@H]2O)cc1)Nc1ccc(OCCOc2ccc(NC(=O)CCc3ccc(O[C@@H]4O[C@H](CO)[C@H](O)[C@H](O)[C@H]4O)cc3)cn2)nc1 [Compound M31] | 4.1
